- TARGET_OR_SYSTEM: T1, human CD112R on antigen-specific CD8+ T cells (human, UniProt Q6DKI7 1-326)
- T1 sequence (looked up): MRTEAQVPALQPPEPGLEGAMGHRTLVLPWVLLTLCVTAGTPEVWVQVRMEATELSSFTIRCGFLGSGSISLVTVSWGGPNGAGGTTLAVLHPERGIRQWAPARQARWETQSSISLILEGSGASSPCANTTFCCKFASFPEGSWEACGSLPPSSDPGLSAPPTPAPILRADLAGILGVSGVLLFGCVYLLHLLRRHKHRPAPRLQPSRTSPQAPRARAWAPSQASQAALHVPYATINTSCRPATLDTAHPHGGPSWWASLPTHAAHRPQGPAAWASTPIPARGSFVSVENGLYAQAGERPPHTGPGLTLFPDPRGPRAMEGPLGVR
- MEASUREMENT_PROTOCOL: cell-based or functional assay
// reported IFN-γ(pg/ml) at 50µg/ml antibody for each item listed
PARAMETER: IFN-γ(pg/ml) at 50µg/ml antibody (pg/mL)

{"columns": ["BINDER", "SCALE_UNIT", "ENDPOINT_VALUE"],
 "data": [
  ["C24 (antibody, human IgG1, kappa, V domains shown) VH: QVQLKQSGPGLVQPSQNLSITCTVSGFSLTGYGINWVRQSPGKGLEWLGVIWSGGNTEYNAAFRSRLSISKDTSKSQVFLKMNSLQADDTAIYSCARDSTGLYAMDYWGPGTSVTVSS VL: DLQMTQTTSSLSASLGDRVTISCRTSQDISNFLNWYQQKPDGPLKLLIYYTSRLHSGVPSRFSGSGSGTDYSLTISNLEQEDIATYFCQQGYMLPPTFGGGTKLEIKR", "pg/mL", 733],
  ["C1 (antibody, human IgG1, kappa, V domains shown) VH: QVHLQQSGPELVKPGASLKISCKASGYTFTDYYLNWVKQRPGQGLEWIGWIFPGSESTFYNEKFKGKATLTVDKSSSTAYMLLNSLTSEDSAVYFCTRDGGLRGPFDYWGQGTTLTVSS VL: DIQLTQSPSSLSASLGGKVTITCKASQDINKYIAWCQHKPGKGPRLLIHYTSTLHPGIPSRFSGSGSGRDYSFSISNLEPEDSATYYCLQYDYLLTFGGGTKLEIKR", "pg/mL", 755],
  ["C13 (antibody, human IgG1, kappa, V domains shown) VH: EVQLQQSGPELVKPGASVKISCKASGYTFTDYFMNWVKQSHGKSLEWIGDINPNNGSPNYNQKFKGRATLTVDKSSSTAYMELRSLTSEDSAVYYCASGYFDVWGTGTTVTVSS VL: DIVMTQSPSSLSVSAGEKVTMSCKSSQSLLNSGTQKNYLAWYQQKPGQPPKLLIYGASTRESGVPDRFTGSGSGTDFTLTISSVQAEDLAVYYCQNDHSYPWTFGGGTKLEIKR", "pg/mL", 767],
  ["C19 (antibody, human IgG1, kappa, V domains shown) VH: EVQLVESGGGLVKPGGSLKLSCAASGFTFSDYYMYWVRQTPEKRLEWVATISDAGGYTYYPDSVKGRFTISRDNARNSLYLQMSSLKSEDTAMYFCGREDLWGQGTSVTVSS VL: DIQMTQSPSSLSASLGERVSLTCRASQDIGYSLNWLQQEPDGSVRRLIYATSRLDSGVPKRFSGSRSGSDYSLTISSLESEDFVDYYCLQYASFPYTFGGGTKLEIKR", "pg/mL", 829],
  ["C11 (antibody, human IgG1, kappa, V domains shown) VH: EVQLQQSGPELVKPGASVKISCKASGYTFTDYFMNWVRQSHGKSLEWIGDIHPNNGSPNYNQKFKGKATLTVGKSSSTAYMELRSLTSEDSAVYYCATGYFDVWGTGTTVTVSS VL: DIVMTQSPSSLSVSAGEKVTMSCKSSQSLLNSGNQKNYLAWYQQKPGQPPKLLIYGASTRESGVPDRFTGSGSGTDFTLTISSVQAEDLAVYYCQNDHSYPWTFGGGTKLEIKR", "pg/mL", 617],
  ["C3 (antibody, human IgG1, kappa, V domains shown) VH: QVQLQQSGPELVKPGASVKISCRSSGYTFTDYYINWVKQRPGQGLEWIGWIFPGSDYTYYNEKFKGKATLTVDKSSTTAYMLLSSLTSEDSAVYFCARDGGLRGPFDYWGQGTTLTVSS VL: DIQMTQSPSSLSASLGGKVTITCKASQDINKYIAWYQQKPGKGPRLLIHYTSTLQPGIPSRFSGSGSGRNSSFSISNLEPEDIATYYCLQYDNLHTFGGGTKLEIKR", "pg/mL", 755],
  ["C12 (antibody, human IgG1, kappa, V domains shown) VH: EVQLVASGGGLVKPGGSLKLSCAASGFTFSDYYMYWVRQTPEKRLEWVATISDGGGYTYYPDSVKGRFTISRDNDRNSLYLQMSSLKSEDTAMYYCGREDLWGQGTSVTVSS VL: DIQMTQSPSSLSASLGERVSLTCRASQDIGSSLNWLQQEPDGTVKRLIYATSRLDSGVPKRFSGSRSGSDYSLTISSLESEDFVDYYCLQYASFPYTFGGGTKLEIKR", "pg/mL", 824]
]}
